System: Eleocharis kuroguwai
protocol-text: Field transplant rice test, applied 0 DAT, EK
Assay type: in vivo
experimental-parameters: 0 h, 3.0 Kg/Ha, 2 WAT, read-out: Percent Inhibition, EK
quantity-measured: inhibition at 3000 g/ha (%)
# value in %; strip the unit string

The following compounds have reported results that may help.
>  <chemical-string>
CCCCOc1cccc(CC)c1N(C)C(=O)CCl

>  <inhibition at 3000 g/ha (%)>
97

$$$$
>  <chemical-string>
CCCCOCN(C(=O)CCl)c1c(C)cccc1C(C)(C)C

>  <inhibition at 3000 g/ha (%)>
82

$$$$
>  <chemical-string>
CCCCOCN(C(=O)CCl)c1c(CC)cccc1CC

>  <inhibition at 3000 g/ha (%)>
90

$$$$
>  <chemical-string>
CCCCOCCN(C(=O)CCl)c1c(CC)cccc1CC

>  <inhibition at 3000 g/ha (%)>
100

$$$$

Here is another compound to look at.
Data request: Query (compound): `CCCOCCN(C(=O)CCl)c1c(CC)cccc1CC` ; field requested: inhibition at 3000 g/ha
Data returned: 85

* * *

Test system: Echinochloa crus-galli
protocol-text: Field transplant rice test, applied 0 DAT, EC
Assay type: in vivo
experimental-parameters: 0 h, 0.75 Kg/Ha, 4 WAT, read-out: Percent Inhibition, EC
quantity-measured: inhibition at 750 g/ha

>  <chemical-string>
CCCCOc1cccc(CC)c1N(C)C(=O)CCl

>  <inhibition at 750 g/ha>
100%

$$$$

Data request: Query (compound): `CCCCOCN(C(=O)CCl)c1c(CC)cccc1CC` ; field requested: inhibition at 750 g/ha
Data returned: 100%

Data request: For `CCCOCCN(C(=O)CCl)c1c(CC)cccc1CC` then?
Data returned: 100%

Data request: For `CCCCOCN(C(=O)CCl)c1c(C)cccc1C(C)(C)C` then?
Data returned: 100%

Data request: For `CCCCOCCN(C(=O)CCl)c1c(CC)cccc1CC` then?
Data returned: 93%

* * *

System: Monochoria vaginalis
protocol-text: Field transplant rice test, applied 0 DAT, MV
Assay type: in vivo
experimental-parameters: Pontederia vaginalis, 0 h, 0.75 Kg/Ha, 6 WAT, read-out: Percent Inhibition, MV
quantity-measured: inhibition at 750 g/ha (%)
# value in %; strip the unit string

>  <compound>
CCCOCCN(C(=O)CCl)c1c(CC)cccc1CC [Compound D]

>  <quantity-measured>
inhibition at 750 g/ha

>  <units-of-measure>
%

>  <measured-result>
100

$$$$
>  <compound>
CCCCOCN(C(=O)CCl)c1c(C)cccc1C(C)(C)C [Compound C]

>  <quantity-measured>
inhibition at 750 g/ha

>  <units-of-measure>
%

>  <measured-result>
100

$$$$
>  <compound>
CCCCOCCN(C(=O)CCl)c1c(CC)cccc1CC [Compound B]

>  <quantity-measured>
inhibition at 750 g/ha

>  <units-of-measure>
%

>  <measured-result>
100

$$$$

Data request: Query (compound): CCCCOc1cccc(CC)c1N(C)C(=O)CCl [Example 1] ; field requested: inhibition at 750 g/ha
Data returned: 97

Data request: For CCCCOCN(C(=O)CCl)c1c(CC)cccc1CC [Compound A] then?
Data returned: 100

* * *

Test system: Echinochloa crus-galli
protocol-text: Field transplant rice test, applied 9 DAT, EC
Type: in vivo
experimental-parameters: Echinochloa crus-galli, 216 h, 3.0 Kg/Ha, 3 WAT, read-out: Percent Inhibition, EC
quantity-measured: inhibition at 3000 g/ha

The following compounds have reported results that may help.
>  <chemical-string>
CCCCOc1cccc(CC)c1N(C)C(=O)CCl

>  <inhibition at 3000 g/ha>
100%

$$$$
>  <chemical-string>
CCCOCCN(C(=O)CCl)c1c(CC)cccc1CC

>  <inhibition at 3000 g/ha>
100%

$$$$
>  <chemical-string>
CCCCOCN(C(=O)CCl)c1c(C)cccc1C(C)(C)C

>  <inhibition at 3000 g/ha>
98%

$$$$

Data request: Query inhibition at 3000 g/ha on Echinochloa crus-galli for `CCCCOCN(C(=O)CCl)c1c(CC)cccc1CC`
Data returned: 93%

Data request: For `CCCCOCCN(C(=O)CCl)c1c(CC)cccc1CC` then?
Data returned: 95%
